# procedure.text: Plasma protein binding assessed as percentage unbound
// map fraction unbound to label using Low = under 0.04, Mid = from 0.04 up to 0.2, High = 0.2 and over

Before answering, review these 5 worked examples.
CCOc1cc2ncc(C(N)=O)c(Nc3ccc(F)cc3F)c2cc1N1CCOCC1 Mid
COCCOc1cc2ncc(C(N)=O)c(Nc3ccc(C)cc3F)c2cc1N1CCN(C)CC1 Mid
CCOc1cc2ncc(C(N)=O)c(Nc3cccc(Cl)c3Cl)c2cc1N1CCN(C(C)=O)CC1 Mid
COCCOc1cc2ncc(C(N)=O)c(Nc3ccc(F)cc3F)c2cc1N1CCN(C)CC1 High
CCOc1cc2ncc(C(N)=O)c(Nc3ccc(F)cc3F)c2cc1N1CCCN(C)CC1 High

Prompt: Field: class (fraction unbound) — entry: `CC(C)Oc1cc2ncc(C(N)=O)c(Nc3cccc(Cl)c3Cl)c2cc1N1CCN(C)CC1`
Completion: Low

Prompt: Field: class (fraction unbound) — entry: `CN1CCN(c2ccc3ncc(C(N)=O)c(Nc4cccc(Cl)c4Cl)c3c2)CC1`
Completion: Mid

Prompt: Field: class (fraction unbound) — entry: `CCOc1cc2ncc(C(N)=O)c(Nc3cccc(Cl)c3Cl)c2cc1N1CCN(C(C)C)CC1`
Completion: Low

Prompt: Field: class (fraction unbound) — entry: `COc1cc2ncc(C(N)=O)c(Nc3cccc(Cl)c3Cl)c2cc1N1CCN(C)CC1`
Completion: Mid

====

// values below are reported clearance
# procedure.text: Clearance in rat at 3 mg/kg, iv and 10 mg/kg, po
# Format: ADME, organism-based
# measurement.conditions: in vivo
Response body: numeric value in mL/min/kg, unit text excluded.

Examples from the recorded data:
CN1CCN(c2ccc3ncc(C(N)=O)c(Nc4ccc(F)cc4F)c3c2)CC1 45
COCCOc1cc2ncc(C(N)=O)c(Nc3ccc(F)cc3F)c2cc1N1CCN(C)CC1 68
COc1cc2ncc(C(N)=O)c(Nc3ccc(Cl)c(Cl)c3)c2cc1N1CCN(C)CC1 50
CCOc1cc2ncc(C(N)=O)c(Nc3cc(F)ccc3F)c2cc1N1CCN(C)CC1 28

With those in mind, consider the next compound.
Kindly note the recorded clearance for `COc1cc2ncc(C(N)=O)c(Nc3ccc(Cl)cc3Cl)c2cc1N1CCN(C)CC1` , which is 72
